- Test system: 1685 cells
- run.description: Cytotoxic effects of compounds, no thapsigargin (propidium iodide)
- Format: cell-based, human
Give Δ Cell Viability for every item shown.
Give bare numbers, in %.

As a guide, the following entries are already answered.
smiles.string	target.of.assay	observed
CCCCCCCCc1ccc(NC(=N)N)cc1	1685 cells	−83.5
COc1cc(NC(=N)N)c(Cl)cc1C(=O)O	1685 cells	−22.2
CCCCCCOc1ccc(NC(=N)N)cc1	1685 cells	−106.7

Now consider the entry below.
Determine its reported Δ Cell Viability: N=C(N)Nc1ccc(F)cc1
−23.6

###

- Tested on: 1685 cells
- run.description: Thapsigargin induced apoptosis (cell death, propidium iodide)
- Assay type: cell-based, human
- particulars: thapsigargin 1 μM plus agent 100 μM, 24 hours
Give % Non-Viable Cells with Thapsigargin and with Cmpd. for every item shown.
Answers are plain numbers, in %.

As a guide, the following entries are already answered.
smiles.string	target.of.assay	units.symbol	observed
N=C(N)Nc1cc(F)cc(F)c1	1685 cells	%	42.2
COc1cc(NC(=N)N)cc(OC)c1OC	1685 cells	%	46.7
N=C(N)NCCc1ccc(O)c(O)c1	1685 cells	%	52.3
N=C(N)Nc1ccccc1CO	1685 cells	%	44.3
CCCCCCOc1ccc(NC(=N)N)cc1	1685 cells	%	121.2
N=C(N)Nc1ccc(O)c(C(=O)O)c1	1685 cells	%	49.8

Hi team, please reply with % Non-Viable Cells with Thapsigargin and with Cmpd. for each item in this list.
1. COc1cc(C(=O)O)ccc1NC(=N)N
2. N=C(N)Nc1cc(C(F)(F)F)cc(C(F)(F)F)c1
3. CCCCCCCCc1ccc(NC(=N)N)cc1
4. N=C(N)Nc1ccc(F)cc1

1. 37.5
2. 47.9
3. 100.0
4. 56.9

Hi team, please reply with % Non-Viable Cells with Thapsigargin and with Cmpd. for each item in this list.
1. COc1cc(NC(=N)N)c(Cl)cc1C(=O)O
2. N=C(N)NC(=N)Nc1ccc(C(=O)O)cc1
3. N=C(N)Nc1ccc(N2CCOCC2)cc1

[52.8, 42.4, 42.5]
